- Target Or System: HLA-A*69:01
- Assay Name: IEDB peptide-MHC binding, purified MHC/direct/fluorescence; filed as Kd, often an IC50 or EC50 that approximates it; bounds were set here for any values at or beyond the usual limits of such assays
- Test Conditions: source organism: Vibrio vulnificus YJ016
Property Measured: Kd

Query the reported Kd for HLA-A*69:01; item: KRFYQTVGF
≥ 20 µM

---

- Target Or System: HLA-B*27:05
- Assay Name: IEDB peptide-MHC binding, purified MHC/direct/fluorescence; filed as Kd, often an IC50 or EC50 that approximates it; bounds were set here for any values at or beyond the usual limits of such assays
- Test Conditions: source organism: Influenza A virus (A/whooper swan/Mongolia/6/05(H5N1))
Property Measured: Kd

Fill blank: measured Kd of the sequence SSDDFALIV is ____.
≥ 20 µM

---

- Target Or System: HLA-A*02:12
- Assay Name: IEDB peptide-MHC binding, purified MHC/competitive/fluorescence; filed as Kd, often an IC50 or EC50 that approximates it; bounds were set here for any values at or beyond the usual limits of such assays
- Test Conditions: source organism: Giardia lamblia ATCC 50803
pKd: −log10 of the molar value.
Property Measured: pKd

Fill blank: measured pKd of the sequence MARPADASM is ____.
≤ 4.70

---

- Target Or System: HLA-A*02:16
- Assay Name: IEDB peptide-MHC binding, purified MHC/competitive/fluorescence; filed as Kd, often an IC50 or EC50 that approximates it; bounds were set here for any values at or beyond the usual limits of such assays
- Test Conditions: source organism: Cryptosporidium parvum Iowa II
Property Measured: Kd

Fill blank: measured Kd of the sequence KSFSAGMFH is ____.
≥ 20 µM

---

- Target Or System: HLA-B*51:01
- Assay Name: IEDB peptide-MHC binding, purified MHC/competitive/fluorescence; filed as Kd, often an IC50 or EC50 that approximates it; bounds were set here for any values at or beyond the usual limits of such assays
- Test Conditions: source organism: Bacillus anthracis str. A0488
Property Measured: pKd
Please note pKd is a logarithmic value: minus log10 of concentration in mol/L. Answer with that number alone.

Fill blank: measured pKd of the sequence WDAYIPHYV is ____.
6.27

---

- Target Or System: HLA-A*02:16
- Assay Name: IEDB peptide-MHC binding, purified MHC/direct/fluorescence; filed as Kd, often an IC50 or EC50 that approximates it; bounds were set here for any values at or beyond the usual limits of such assays
- Test Conditions: source organism: Orthohantavirus negraense
Property Measured: Kd

Fill blank: measured Kd of the sequence SLLFREVWK is ____.
≥ 20 µM

---

- Target Or System: HLA-B*44:02
- Assay Name: IEDB peptide-MHC binding, purified MHC/direct/fluorescence; filed as Kd, often an IC50 or EC50 that approximates it; bounds were set here for any values at or beyond the usual limits of such assays
- Test Conditions: source organism: Rickettsia prowazekii
pKd: −log10 of the molar value.
Below, each entry is listed alongside its reported pKd.

IYSAEFKNY ≤ 4.70

Kindly consider the entry below.
Fill blank: measured pKd of the sequence QFAGGSFDF is ____.
≤ 4.70

---

- Target Or System: HLA-A*32:01
- Assay Name: IEDB peptide-MHC binding, purified MHC/competitive/radioactivity; filed as Kd, often an IC50 or EC50 that approximates it; bounds were set here for any values at or beyond the usual limits of such assays
- Test Conditions: source organism: Dengue virus 3 Martinique/1243/1999
Property Measured: pKd
Please note pKd is a logarithmic value: minus log10 of concentration in mol/L. Answer with that number alone.

Fill blank: measured pKd of the sequence ATLLVWHTW is ____.
8.57

Data origin: the Immune Epitope Database (IEDB)
